system: Hepatitis B virus; test: Antiviral activity against HBV infected in human HepG2.2.15 cells assessed as inhibition of viral DNA replication pre-transfected cells with viral genome followed by compound treatment for 6 days with replacement of medium containing compound on every 2 days by RT-PCR analysis; type: functional, organism-based

# chemicalString, comparativeSign, IC50, nM
measured = [
    ("O=C(Cc1csc(COc2ccccc2)n1)N1CCc2cc(Cl)ccc21", "=", 230),
    ("O=C(Cc1csc(COc2ccccc2)n1)N1CCc2cc(Br)ccc21", "=", 380),
    ("O=C(Cc1csc(COc2ccccc2F)n1)N1CCc2cc(Br)ccc21", "=", 430),
    ("O=C(Cc1csc(COc2ccccc2)n1)N1CCc2cccc(Br)c21", "=", 3070),
    ("O=C(Cc1csc(COc2ccccc2F)n1)N1CCc2ccccc21", "=", 130),
    ("O=C(Cc1csc(COc2ccc(C(F)(F)F)cc2)n1)N1CCc2ccccc21", "=", 650),
    ("O=C(Cc1csc(COc2cccc(C(F)(F)F)c2)n1)N1CCc2ccccc21", "=", 3510),
    ("O=C(Cc1csc(COc2ccccc2)n1)N1CCc2ccccc21", "=", 17200),
    ("O=C(Cc1csc(COc2cccc(Br)c2)n1)N1CCc2ccccc21", "=", 840),
    ("Cc1cccc(OCc2nc(CC(=O)N3CCc4ccccc43)cs2)c1", "=", 740),
    ("O=C(Cc1csc(COc2ccccc2)n1)N1CCc2ccc(Cl)cc21", "=", 620),
    ("O=C(Cc1csc(COc2ccccc2)n1)N1CCc2cccc(Cl)c21", "=", 1010),
    ("Nc1ccn([C@@H]2CS[C@H](CO)O2)c(=O)n1", "<", 100),
    ("O=C(Cc1csc(COc2ccccc2)n1)N1CCc2c(F)cccc21", "=", 3900),
    ("COc1ccc2c(c1)CCN2C(=O)Cc1csc(COc2ccccc2)n1", "=", 2840),
    ("O=C(Cc1csc(COc2ccccc2C(F)(F)F)n1)N1CCc2ccccc21", "=", 660),
]

====

assay: Selectivity index, ratio of CC50 for human HepG2.2.15 cells to IC50 for HBsAg secretion in human HepG2.2.15 cells; type: toxicity, cell-based

# chemicalString, Ratio CC50/IC50
records = [
    ("O=C(Cc1csc(COc2ccccc2)n1)N1CCc2cccc(Cl)c21", "Not Active"),
    ("O=C(Cc1csc(COc2ccccc2)n1)N1CCc2cc(Br)ccc21", "Not Active"),
    ("Nc1ccn([C@@H]2CS[C@H](CO)O2)c(=O)n1", "Not Active"),
    ("O=C(Cc1csc(COc2ccccc2)n1)N1CCc2ccccc21", "Not Active"),
    ("O=C(Cc1csc(COc2ccccc2)n1)N1CCc2cccc(Br)c21", "Not Active"),
    ("O=C(Cc1csc(COc2ccccc2C(F)(F)F)n1)N1CCc2ccccc21", "Not Active"),
]

====

selectivity ratio: recorded values
test: Selectivity index, ratio of CC50 for human HepG2.2.15 cells to IC50 for HBsAg secretion in human HepG2.2.15 cells; type: toxicity, cell-based; conditions: HepG2.2.15 cells, read-out: Ratio CC50/IC50
property: selectivity ratio

# chemicalString, experimentalResult
measured = [
    ("O=C(Cc1csc(COc2cccc(C(F)(F)F)c2)n1)N1CCc2ccccc21", "> 1.2"),
    ("COc1ccc2c(c1)CCN2C(=O)Cc1csc(COc2ccccc2)n1", "> 1.28"),
    ("O=C(Cc1csc(COc2ccccc2F)n1)N1CCc2ccccc21", "> 1.93"),
    ("O=C(Cc1csc(COc2ccccc2)n1)N1CCc2ccc(Cl)cc21", "> 1.19"),
    ("O=C(Cc1csc(COc2ccccc2F)n1)N1CCc2cc(Br)ccc21", "> 0.89"),
    ("O=C(Cc1csc(COc2ccc(C(F)(F)F)cc2)n1)N1CCc2ccccc21", "> 1.27"),
]

====

assay: Selectivity index, ratio of CC50 for human HepG2.2.15 cells to IC50 for HBsAg secretion in human HepG2.2.15 cells; format: toxicity, cell-based; settings: HepG2.2.15 cells, read-out: Ratio CC50/IC50
selectivity ratio: recorded values

# chemicalString, selectivity ratio
records = [
    ("O=C(Cc1csc(COc2ccccc2)n1)N1CCc2c(F)cccc21", "> 1.64"),
    ("Cc1cccc(OCc2nc(CC(=O)N3CCc4ccccc43)cs2)c1", "> 2.45"),
    ("O=C(Cc1csc(COc2ccccc2)n1)N1CCc2cc(Cl)ccc21", "> 1.92"),
    ("O=C(Cc1csc(COc2cccc(Br)c2)n1)N1CCc2ccccc21", "> 1.17"),
]

====

biological target: Toll-like receptor 7 (Homo sapiens); assay: Binding affinity to recombinant human TLR7 assessed as dissociation constant by SPR analysis
Sequence (Q9NYK1 whole entry): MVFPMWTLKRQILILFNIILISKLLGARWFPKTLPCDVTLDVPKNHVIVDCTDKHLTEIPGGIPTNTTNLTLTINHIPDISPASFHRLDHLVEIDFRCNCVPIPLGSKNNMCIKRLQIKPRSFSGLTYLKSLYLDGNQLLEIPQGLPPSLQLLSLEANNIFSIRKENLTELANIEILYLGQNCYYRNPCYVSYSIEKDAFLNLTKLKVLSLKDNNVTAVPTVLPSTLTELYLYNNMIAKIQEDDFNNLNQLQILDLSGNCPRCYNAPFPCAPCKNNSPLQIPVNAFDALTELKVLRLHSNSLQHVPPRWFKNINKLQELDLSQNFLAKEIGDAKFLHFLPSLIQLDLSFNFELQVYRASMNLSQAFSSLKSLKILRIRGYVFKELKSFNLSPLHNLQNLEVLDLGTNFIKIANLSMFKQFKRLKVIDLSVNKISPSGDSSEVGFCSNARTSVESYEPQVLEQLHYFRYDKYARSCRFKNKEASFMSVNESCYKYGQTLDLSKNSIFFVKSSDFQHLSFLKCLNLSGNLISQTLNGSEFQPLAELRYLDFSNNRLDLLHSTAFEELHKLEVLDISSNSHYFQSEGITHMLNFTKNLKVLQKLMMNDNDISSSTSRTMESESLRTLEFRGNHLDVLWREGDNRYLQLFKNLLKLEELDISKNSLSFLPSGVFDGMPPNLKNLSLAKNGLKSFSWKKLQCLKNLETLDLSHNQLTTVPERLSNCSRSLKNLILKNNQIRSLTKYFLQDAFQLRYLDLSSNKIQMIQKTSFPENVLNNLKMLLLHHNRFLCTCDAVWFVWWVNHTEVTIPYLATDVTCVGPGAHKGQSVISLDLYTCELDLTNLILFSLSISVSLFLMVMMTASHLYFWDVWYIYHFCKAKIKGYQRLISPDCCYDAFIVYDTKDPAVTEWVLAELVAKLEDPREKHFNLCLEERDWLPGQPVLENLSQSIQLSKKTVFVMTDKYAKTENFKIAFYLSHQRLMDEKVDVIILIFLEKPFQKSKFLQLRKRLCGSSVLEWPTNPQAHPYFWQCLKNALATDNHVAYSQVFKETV
property: Kd (µM)

# chemicalString, measurementUnits, experimentalResult
measured = [
    ("O=C(Cc1csc(COc2ccccc2F)n1)N1CCc2ccccc21", "µM", 7.06),
]

====

experiment: Tmax in Sprague-Dawley rat at 10 mg/kg, IG measured for 12 hrs by UPLC-MS/MS analysis; format: ADME, organism-based; details: in vivo, po
property: Tmax

# chemicalString, experimentalResult
measured = [
    ("O=C(Cc1csc(COc2ccccc2F)n1)N1CCc2ccccc21", "2 h"),
]

====

IC50: recorded values
assay: Inhibition of HBsAg secretion in human HepG2.2.15 cells treated for 6 days with replacement of medium containing compound on every 2 days by […]; assay type: functional, cell-based; settings: HepG2 2.2.15
property: IC50 (µM)

# chemicalString, property, measurementUnits, comparativeSign, experimentalResult
records = [
    ("O=C(Cc1csc(COc2ccc(C(F)(F)F)cc2)n1)N1CCc2ccccc21", "IC50", "µM", "=", 39.5),
    ("O=C(Cc1csc(COc2ccccc2)n1)N1CCc2ccccc21", "IC50", "µM", ">", 50),
    ("O=C(Cc1csc(COc2ccccc2)n1)N1CCc2cc(Cl)ccc21", "IC50", "µM", "=", 26.1),
    ("O=C(Cc1csc(COc2ccccc2)n1)N1CCc2cccc(Br)c21", "IC50", "µM", ">", 50),
    ("O=C(Cc1csc(COc2ccccc2)n1)N1CCc2cccc(Cl)c21", "IC50", "µM", ">", 50),
]

====

assay: Selectivity index, ratio of CC50 for human HepG2.A64 cells to IC50 for HBV infected in human HepG2.A64 cells assessed as inhibition of viral DNA replication; type: toxicity, cell-based; conditions: read-out: Ratio CC50/IC50
property: selectivity ratio

# chemicalString, experimentalResult
records = [
    ("O=C(Cc1csc(COc2ccccc2F)n1)N1CCc2ccccc21", "> 55.6"),
    ("O=C(Cc1csc(COc2ccccc2)n1)N1CCc2cc(Cl)ccc21", "> 35.1"),
]

====

experiment: AUClast in Sprague-Dawley rat at 10 mg/kg, IG measured for 12 hrs by UPLC-MS/MS analysis; type: ADME, organism-based; conditions: in vivo, po

# chemicalString, AUC(0-t) at 12 h
records = [
    ("O=C(Cc1csc(COc2ccccc2F)n1)N1CCc2ccccc21", "252 ng·h/mL"),
]

====

test: Inhibition of HBsAg secretion in human HepG2.2.15 cells treated for 6 days with replacement of medium containing compound on every 2 days by […]; format: functional, cell-based; conditions: HepG2 2.2.15

# chemicalString, IC50
rows = [
    ("O=C(Cc1csc(COc2ccccc2F)n1)N1CCc2cc(Br)ccc21", "44.7 µM"),
    ("O=C(Cc1csc(COc2ccccc2)n1)N1CCc2ccc(Cl)cc21", "42.2 µM"),
    ("O=C(Cc1csc(COc2ccccc2C(F)(F)F)n1)N1CCc2ccccc21", "> 50 µM"),
    ("Cc1cccc(OCc2nc(CC(=O)N3CCc4ccccc43)cs2)c1", "20.4 µM"),
    ("O=C(Cc1csc(COc2cccc(C(F)(F)F)c2)n1)N1CCc2ccccc21", "41.6 µM"),
    ("O=C(Cc1csc(COc2ccccc2)n1)N1CCc2cc(Br)ccc21", "> 50 µM"),
    ("O=C(Cc1csc(COc2ccccc2F)n1)N1CCc2ccccc21", "25.9 µM"),
    ("COc1ccc2c(c1)CCN2C(=O)Cc1csc(COc2ccccc2)n1", "39.1 µM"),
    ("O=C(Cc1csc(COc2cccc(Br)c2)n1)N1CCc2ccccc21", "42.7 µM"),
    ("O=C(Cc1csc(COc2ccccc2)n1)N1CCc2c(F)cccc21", "30.5 µM"),
    ("Nc1ccn([C@@H]2CS[C@H](CO)O2)c(=O)n1", "> 100 µM"),
]
